- System: UO-31
- test-protocol: NCI tumour cell line growth inhibition, 48 h
Activity calls are given as the source filed them. Rule as the data show it: active = GI50 up to about 1.1 µM and inactive = higher.
// one of yes (1) = active, no (0) = inactive, no free text

Below are worked cases with known answers.
[
  {
    "molecule": "COc1ccc(COC(=O)NNC(=O)C2CSC(c3ccccc3)N2C(C)=O)cc1 (stereo not given)",
    "category": "no (0)"
  },
  {
    "molecule": "CS(=O)(=O)Nc1ccc(Nc2ccnc3ccc4[nH]ccc4c23)cc1",
    "category": "no (0)"
  },
  {
    "molecule": "COC(=O)C12C(=O)O[C@H](C)C1(O)C(C)C(=O)N2C (stereo not given in full)",
    "category": "no (0)"
  },
  {
    "molecule": "CC(C)(C)c1cc(Oc2ccc(C#N)c(C#N)c2)cc(C(C)(C)C)c1",
    "category": "no (0)"
  },
  {
    "molecule": "COC(=O)c1cc2c3c(ccc2[nH]1)N(C(=O)c1cc2cc(OC)c(OC)c(OC)c2[nH]1)CC3CCl (stereo not given)",
    "category": "no (0)"
  }
]

Tell me the assay call for `O=C(/C=C/c1ccc(Cl)c(Cl)c1)c1ccc(F)cc1` please. no (0)

OC1NC2CC3NC(O)C(O)NC3CC2NC1O (stereo not given) , same question. no (0)

What about this molecule? `C=C1CCCC(C)(C)[C@@H]1CC/C(C)=C/Cn1c2cccc(=O)c-2nc2ccccc21` no (0)

Note, next up: C=Cc1cc(OC)c2c(c1)c(=O)oc1c2cc(OC)c2c(O)ccc(C3OC(C)C(O)C(C)(O)C3O)c21 (stereo not given) yes (1)

And the next one, `C=C1CN(C2=NCCO2)C1` ? no (0)

How about `CCOc1ccc(NC(=O)/C(Cc2nc3ccccc3nc2O)=N\O)cc1` ? no (0)

C[C@@H]1CC[C@@]2(OC1)O[C@H]1[C@@H](O)[C@H]3[C@@H]4CC[C@H]5C[C@@H](O[C@@H]6O[C@H](CO)[C@H](O[C@@H]7O[C@H](CO)C(O)[C@H](O[C@@H]8OC[C@@H](O)[C@H](O)[C@H]8O)[C@H]7O[C@@H]7O[C@H](CO)[C@H](O)[C@H](O[C@@H]8O[C@H](CO)[C@@H](O)[C@H](O)[C@H]8O)[C@H]7O)[C@H](O)[C@H]6O)[C@H](O)C[C@]5(C)[C@H]4CC[C@]3(C)[C@H]1[C@@H]2C (stereo not given in full) , same question. no (0)

// repeat for `CN(C(=O)c1cc2c(s1)sc1c(=O)n(C)c3ccccc3c12)c1ccccc1` and report no (0)

Would you mind doing CCCCOC(=O)C1CN2C=CC=NC2=NC1(C(F)(F)F)C(F)(F)F (stereo not given) as well? no (0)

What about CC(=O)N1CCN(C23OC4(N5CCN(C(C)=O)CC5)C5C6CC(C7C6C4C72)C53)CC1 (stereo not given) ? no (0)

Also need CC(=O)C1C(c2ccccc2)C2(C)OC(=O)C(C#N)C12C (stereo not given) , thanks. no (0)

Let us now turn to `O=C(CSc1nnc(-c2ccccn2)s1)N/N=C/c1ccc([N+](=O)[O-])cc1` yes (1)

----------
- System: MDA-MB-435
- test-protocol: NCI tumour cell line growth inhibition, 48 h
Calls of active or inactive are those of the source. No stated cut-off is given here; in the data, active = GI50 up to about 1.1 µM and inactive = higher. Residues, ends and D or L forms follow the SMILES beside them. *: point of attachment. Boc = CC(C)(C)OC(=O)*; OBn = c1ccc(CO*)cc1
measured-property: GI50

[
  {
    "compound": "Cc1cccc(-c2nc(-c3cnccn3)n(Cc3ccccc3)n2)c1",
    "target-of-assay": "MDA-MB-435",
    "GI50": "> 100 µM (inactive)"
  },
  {
    "compound": "C=CCC1C(=O)Nc2cccc3ncn(c23)C1=O (configuration not stated)",
    "target-of-assay": "MDA-MB-435",
    "GI50": "> 100 µM (inactive)"
  },
  {
    "compound": "O=S(=O)(O)c1c(/N=N/c2c(O)ccc3ccccc23)ccc2ccccc12",
    "target-of-assay": "MDA-MB-435",
    "GI50": "> 100 µM (inactive)"
  }
]

Entry `COC(=O)C#CC1(O)C=CC(=O)C=C1` : reported GI50 = ? 0.436 µM (active)

Next entry: CC(C)CC(NC(=O)OC(C)(C)C)C(=O)NC(CC(=O)OCc1ccccc1)C(=O)OCc1ccccc1 (stereo not drawn) (Boc-Leu-Asp(OBn)-OBn; configuration not given here) 40.1 µM (inactive)

Also need `CC(C)(C)C(=O)N1CCN(C=O)C1=S` , thanks. 35.9 µM (inactive)

Query `COc1cc2c(NCCN(C)C)nc3c4cc5c(cc4ccc3c2cc1OC)OCO5` next 3.5 µM (inactive)

Moving on to `CNC(=O)/C(=C/c1ccc(OC)cc1)c1cc(OC)c(OC)c(OC)c1` 0.281 µM (active)

Proceed to COP(C)(=O)C(Cc1c[nH]c2ccccc12)NC(=O)OCc1ccccc1 (configuration not stated) > 100 µM (inactive)

Could you do the same for COc1ccc(CNC(C)C(=O)O)cc1 (configuration not stated) , please? > 100 µM (inactive)

One more compound: `C/C(=N\NC(=S)N1CCC(N2CCCCC2)CC1)c1ccccn1` 2.4 µM (inactive)
